- SYSTEM_UNDER_TEST: KRAS G12V (amino acids 1-169) (Homo sapiens, UniProt P01116, G12V)
- Sequence (P01116 with tags, fused parts or gaps isoform P01116-2 G12V): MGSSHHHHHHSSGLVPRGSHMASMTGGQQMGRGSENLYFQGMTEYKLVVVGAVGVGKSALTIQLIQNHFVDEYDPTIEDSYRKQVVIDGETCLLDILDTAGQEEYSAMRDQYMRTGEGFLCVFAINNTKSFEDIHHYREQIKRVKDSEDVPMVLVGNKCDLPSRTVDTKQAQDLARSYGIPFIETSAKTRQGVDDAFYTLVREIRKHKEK
- ASSAY_REMARKS: SOS-catalyzed nucleotide exchange assay (Procedure B, BODIPY FL GDP displacement), KRAS G12V
- PROTOCOL_CONDITIONS: read-out: KRAS G12V GNE IC50
READOUT_NAME: IC50 (nM)
One number for each entry, in nM.

Go through the items and report each one's IC50.
1. Cc1cc2[nH]ncc2c(-c2nccc3c2sc2nc(OC[C@@]45CCCN4C[C@H](F)C5)nc(N4CCOC[C@@](C)(O)C4)c23)c1C(C)C
2. CCCC1CCc2cc3[nH]ncc3c(-c3nccc4c3sc3nc(OC[C@@]56CCCN5C[C@H](F)C6)nc(N5CCOC[C@@](C)(O)C5)c34)c21 (some centres unmarked)
3. COC1c2c(cc3[nH]ncc3c2-c2nccc3c2sc2nc(OC[C@@]45CCCN4C[C@H](F)C5)nc(N4CCOC[C@@](C)(O)C4)c23)CC1(F)F (some centres unmarked)
4. C[C@@]1(O)COCCN(c2nc(OC[C@@]34CCCN3C[C@H](F)C4)nc3c(I)c4c(-c5c(C6CC6)c(Cl)cc6[nH]ncc56)nccn4c23)C1
5. C[C@@]1(O)COCCN(c2nc(OC[C@@]34CCCN3C[C@H](F)C4)nc3sc4c(-c5c(-c6ccco6)c(Cl)cc6[nH]ncc56)nncc4c23)C1

Return:
1. 66.7
2. 65
3. 43
4. 837
5. 12.5
